Entries and their log10 of IC50
- test.target: GGTase-I (Rattus norvegicus, UniProt P53610+Q04631)
- Construct: purchased JENA BIOSCIENCE
- assay.procedure: In vitro GGTase-I enzyme assay (IC50, kinetics)
- Assay type: biochemical
- experimental.parameters: Tables 8-15; no unit printed there (Table 7 head: μM unless otherwise specified); read-out: In vitro (GGTase I IC50)
Values below are the log10 of the recorded IC50, with µM as the unit.

Examples with answers:
compound | log10 of IC50
CC(C)(C)[C@@H]1C=C(C(=O)O)[C@H](c2ccc(Cl)cc2)N1S(=O)(=O)c1c(Cl)cccc1Cl | 0.64
CC(C)(C)[C@@H]1C=C(C(=O)O)[C@H](c2ccc(Cl)cc2)N1S(=O)(=O)C(C)(C)C | 1.46
Cc1ccccc1S(=O)(=O)N1[C@@H](c2ccc(Cl)cc2)C(C(=O)O)=C[C@H]1C(C)CC(C)(C)C (some centres unmarked) | 0.53
CC(C)(C)[C@@H]1C=C(C(=O)O)[C@H](c2ccc(Cl)c(Cl)c2)N1S(=O)(=O)c1ccccc1Br | -0.46

Exam item: log10 of IC50 for "Cc1ccccc1S(=O)(=O)N1[C@@H](c2ccc(Cl)cc2)C(COCC(=O)N[C@@H](Cc2ccccc2)C(=O)O)=C[C@H]1C(C)(C)C" ?
Marked response: -1.00

Exam item: # get_value(readout='log10 of IC50', item= Cc1ccccc1S(=O)(=O)N1C(c2cccc(Cl)c2)C(C(=O)O)=CC[C@H]1c1ccc(Cl)cc1 (some centres unmarked) [drawing 189] )
Marked response: -0.51

Exam item: Value lookup for log10 of IC50; key = Cc1ccccc1S(=O)(=O)N1C(c2cccc(Cl)c2)C(C(=O)O)=CC[C@H]1c1ccc(Cl)cc1 (some centres unmarked) [drawing 183]
Marked response: -0.51

Exam item: Look up log10 of IC50: Cc1ccccc1S(=O)(=O)N1[C@@H](c2ccc(Cl)cc2)C(C(=O)O)=C[C@H]1C(C)(C)C [drawing 143]
Marked response: -0.30

Exam item: Requested field: log10 of IC50. Item: CC(C)(C)[C@@H]1C=C(C(=O)N[C@@H](Cc2ccccc2)C(N)=O)[C@H](c2ccc(Cl)c(Cl)c2)N1S(=O)(=O)C(C)(C)C [P61-E02]
Marked response: 0.43

Exam item: # query: log10 of IC50 of entry "COC(=O)[C@H](Cc1ccccc1)NC(=O)COCC1=C[C@@H](C(C)(C)C)N(S(=O)(=O)c2ccccc2C)[C@H]1c1ccc(Cl)cc1"
Marked response: 0.32

* * *

- test.target: GGTase-I (Rattus norvegicus, UniProt P53610+Q04631)
- Construct: purchased JENA BIOSCIENCE
- assay.procedure: In vitro GGTase-I enzyme assay (IC50, kinetics)
- Format: biochemical
- experimental.parameters: Tables 3, 5, 7; read-out: In vitro (enzyme assay) IC50, GGTase I
# IC50 per entry
Expressed in µM, but write only the number.

Exam item: Fill in: IC50 of "Cc1ccccc1S(=O)(=O)N1[C@@H](c2ccc(Cl)cc2)C(CO)=C[C@H]1C(C)(C)C" is ___
Marked response: 2.2

Exam item: Which IC50 value belongs to CC(C)C[C@H](NC(=O)C1=CC[C@@H](c2cccc(Br)c2)N(S(=O)(=O)c2ccc(F)cc2)C1c1cccc(Cl)c1)C(N)=O (stereo partly drawn) [P61-C11] ?
Marked response: 32.9

Exam item: Look at this molecule and give its reported IC50. Cc1ccccc1S(=O)(=O)N1[C@@H](c2ccc(Cl)cc2)C(C(=O)N[C@@H](Cc2ccccc2)C(=O)O)=C[C@H]1C(C)(C)C [P61-A08]
Marked response: 1.4

* * *

- Tested on: K562 cells
- assay.procedure: K562 cell growth inhibition
- Assay type: cell-based, human
- experimental.parameters: Homo sapiens, K562, Tables 8-15; no unit printed there
Classify by GI50. Ranges: band 1 (below 6 µM), band 2 (6 µM to below 7 µM), band 3 (7 µM or more)

Would you please look over these solved cases?
compound | class.name
Cc1ccccc1S(=O)(=O)N1[C@@H](c2ccc(Cl)cc2)C(C(=O)N[C@@H](Cc2ccccc2)C(N)=O)=C[C@H]1C(C)(C)C [P61A6] | band 2
NC(=O)[C@H](Cc1ccccc1)NC(=O)C1=CC[C@@H](c2cccc(Cl)c2)N(S(=O)(=O)c2ccc(Cl)cc2)C1c1cccc(Cl)c1 (some centres unmarked) [P61-D02] | band 1
Cc1ccccc1S(=O)(=O)N1C(c2cccc(Cl)c2)C(CO)=CC[C@H]1c1ccc(Cl)cc1 (some centres unmarked) | band 1
Cc1ccccc1S(=O)(=O)N1[C@@H](c2ccc(Cl)cc2)C(C(=O)N[C@@H](CC(C)C)C(N)=O)=C[C@H]1C(C)(C)C [drawing 156] | band 2
Cc1ccccc1S(=O)(=O)N1[C@@H](c2ccc(Cl)cc2)C(COCC(=O)N[C@@H](Cc2ccccc2)C(N)=O)=C[C@H]1C(C)(C)C | band 1
NC(=O)[C@H](Cc1ccccc1)NC(=O)C1=CC[C@@H](c2cccc(Br)c2)N(S(=O)(=O)c2ccc(Cl)cc2)C1c1cccc(Cl)c1 (some centres unmarked) [P61-D04] | band 3
CC(C)C[C@H](NC(=O)C1=CC[C@@H](c2cccc(Br)c2)N(S(=O)(=O)c2ccc(F)cc2)C1c1cccc(Cl)c1)C(N)=O (some centres unmarked) [P61-C11] | band 3
Cc1ccccc1S(=O)(=O)N1[C@@H](c2ccc(Cl)cc2)C(COCC(=O)N[C@@H](Cc2ccccc2)C(=O)O)=C[C@H]1C(C)(C)C | band 3

Exam item: GET /class?item= Cc1ccccc1S(=O)(=O)N1[C@@H](c2ccc(Cl)c(Cl)c2)C(C(=O)N[C@@H](Cc2ccccc2)C(N)=O)=C[C@H]1C(C)(C)C [P61-B10]
Marked response: band 2

Exam item: Determine which band this compound sits in: COC(=O)[C@H](Cc1ccccc1)NC(=O)C1=C[C@@H](C(C)(C)C)N(S(=O)(=O)c2ccccc2C)[C@H]1c1ccc(Cl)cc1 [P61-A04]
Marked response: band 3

Exam item: State the class of the compound shown: "CC(C)(C)[C@@H]1C=C(C(=O)O)[C@H](c2ccc(Cl)cc2)N1S(=O)(=O)C(C)(C)C"
Marked response: band 3

Exam item: Into which category would you place CC(C)(C)[C@@H]1C=C(C(=O)N[C@@H](Cc2ccccc2)C(N)=O)[C@H](c2ccc(Br)cc2)N1S(=O)(=O)c1ccccc1Cl [P61-B08] ?
Marked response: band 1

Exam item: For this compound, which bin applies? Cc1ccccc1S(=O)(=O)N1[C@@H](c2ccc(Cl)cc2)C(C(=O)N[C@@H](Cc2ccccc2)C(N)=O)=C[C@H]1C(C)CC(C)(C)C (some centres unmarked) [P61-C03]
Marked response: band 2

* * *

In this section we review reported IC50 values for a set of molecules.
- test.target: GGTase-I (Rattus norvegicus, UniProt P53610+Q04631)
- Construct: purchased JENA BIOSCIENCE
- assay.procedure: In vitro GGTase-I enzyme assay (IC50, kinetics)
- Type: biochemical
- experimental.parameters: Tables 8-15; no unit printed there (Table 7 head: μM unless otherwise specified); read-out: In vitro (GGTase I IC50)

Guide cases for IC50, answers given:
molecule | IC50
COC(=O)[C@H](CC(C)C)NC(=O)C1=CC[C@@H](c2ccc(Cl)cc2)N(S(=O)(=O)c2ccccc2C)C1c1cccc(Cl)c1 (stereo partly shown) | > 50 µM
CC(C)(C)[C@@H]1C=C(C(=O)N[C@@H](Cc2ccccc2)C(N)=O)[C@H](c2ccc(Cl)c(Cl)c2)N1S(=O)(=O)c1ccccc1Br [drawing 167] | > 20 µM
Cc1ccccc1S(=O)(=O)N1[C@@H](c2ccc(Cl)cc2)C(C(=O)N[C@@H](Cc2ccccc2)C(N)=O)=C[C@H]1C(C)CC(C)(C)C (stereo partly shown) [P61-C04] | > 50 µM

Turning to the following molecule.
Exam item: What value of IC50 has been recorded for this entry: Cc1ccccc1S(=O)(=O)N1C(c2cccc(Cl)c2)C(CO)=CC[C@H]1c1ccc(Cl)cc1 (stereo partly shown)
Marked response: > 100 µM

* * *

- test.target: GGTase-I (Rattus norvegicus, UniProt P53610+Q04631)
- Construct: purchased JENA BIOSCIENCE
- assay.procedure: In vitro GGTase-I enzyme assay (IC50, kinetics)
- Assay type: biochemical
- experimental.parameters: Tables 3, 5, 7; read-out: In vitro (enzyme assay) IC50, GGTase I
Measured IC50 accompanies every entry in the list below.

compound | IC50
COC(=O)C(CC(C)C)NC(=O)C1=CCC(c2cccc(Cl)c2)N(S(=O)(=O)c2ccc(Br)cc2)C1c1cccc(Cl)c1 (stereo not shown) [P67-A09] | > 20 µM
CC(C)(C)[C@@H]1C=C(C(=O)N[C@@H](Cc2ccccc2)C(N)=O)[C@H](c2ccc(Cl)c(Cl)c2)N1S(=O)(=O)C(C)(C)C [P61-D11] | > 50 µM
COC(=O)C(CC(C)C)NC(=O)C1=CCC(c2cccc(Br)c2)N(S(=O)(=O)c2ccc(Cl)cc2)C1c1cccc(Cl)c1 (stereo not shown) [P67-A07] | > 20 µM

Exam item: Entry under review: Cc1ccccc1S(=O)(=O)N1C(c2cccc(Cl)c2)C(C(=O)N[C@@H](CC(C)C)C(N)=O)=CC[C@H]1c1ccc(Cl)cc1 (stereo partly shown) [P61-C05] . Reported IC50?
Marked response: > 50 µM

Exam item: Which IC50 is reported for this compound? "CCOC(=O)C1=C[C@@H](C(C)(C)C)N(S(=O)(=O)c2ccccc2C)[C@H]1c1ccc(Cl)cc1"
Marked response: > 50 µM

Exam item: Which IC50 is listed for COC(=O)C(CC(C)C)NC(=O)C1=CCC(c2cccc(Cl)c2)N(S(=O)(=O)c2ccc(Cl)cc2)C1c1cccc(Cl)c1 (stereo not shown) [P67-A05] ?
Marked response: > 20 µM

Exam item: Entry CC(C)(C)[C@@H]1C=C(C(=O)N[C@@H](Cc2ccccc2)C(N)=O)[C@H](c2ccc(Cl)c(Cl)c2)N1S(=O)(=O)c1c(Cl)cccc1Cl [P61-D09] has what IC50?
Marked response: > 50 µM
